Below: a set of entries, each annotated with reported % cells in cell cycle phase G1.
- System: HeLa cells
- Measurement Description: Cell cycle assay in HeLa cells
- Assay type: cell-based, human
- Condition Description: HeLa cells, 150 nM, 48 hours, relative to untreated control
In the oligonucleotide strings, read from the 5' end, every base follows the letter of its sugar. An asterisk marks phosphorothioate; unmarked linkages are phosphodiester. Other units and linkages are bracketed, terminal groups are in braces. A string of capitals states the bases alone. e = 2'-O-(2-methoxyethyl) (MOE); [5mC] = 5-methylcytosine; d = 2'-deoxy (DNA)
Expressed in %, but write only the number.

Here is how some substances turned out for % cells in cell cycle phase G1.
328744 (antisense e[5mC]*eG*eG*eA*eT*d[5mC]*d[5mC]*dT*dG*dT*dT*dA*d[5mC]*d[5mC]*dT*e[5mC]*eA*e[5mC]*e[5mC]*eA) [compound 328744]	53
328707 (eG*e[5mC]*eA*eA*e[5mC]*dA*dG*dG*d[5mC]*d[5mC]*dT*d[5mC]*dA*dA*dT*eA*eT*e[5mC]*eT*eT) [compound 328707]	103

*Q* For the substance shown here, 328403 (antisense eA*eG*eG*e[5mC]*e[5mC]*dT*dA*dT*dT*d[5mC]*d[5mC]*dT*dG*dT*dA*eG*e[5mC]*eA*eA*eA) [compound 328403] , give the reported % cells in cell cycle phase G1.
*A* 125

*Q* Fill blank: measured % cells in cell cycle phase G1 of the substance 327902 (antisense eG*eG*e[5mC]*eT*eG*eT*e[5mC]*eA*eA*eT*eT*e[5mC]*eA*eT*eA*eG*eG*eT*e[5mC]*eA*eG) [compound 327902] is ____.
*A* 108

* * *

- System: HeLa cells
- Measurement Description: Cell cycle assay in HeLa cells
- Format: cell-based, human
- Condition Description: HeLa cells, 150 nM oligomeric compound, 24 hours, relative to untreated control (UTC = 100)
In the oligonucleotide strings, read from the 5' end, every base follows the letter of its sugar. An asterisk marks phosphorothioate; unmarked linkages are phosphodiester. Other units and linkages are bracketed, terminal groups are in braces. A string of capitals states the bases alone. e = 2'-O-(2-methoxyethyl) (MOE); [5mC] = 5-methylcytosine; d = 2'-deoxy (DNA)
Reported % cells aneuploid values follow for various substances
Report as: number unit

327906 (antisense eT*e[5mC]*eA*eT*eA*eG*e[5mC]*e[5mC]*e[5mC]*eT*eG*eT*eA*e[5mC]*eA*eA*eT*eG*e[5mC]*eT*eG*e[5mC]*eT) [compound 327906]	65%

*Q* Item 328727 (antisense e[5mC]*eT*eG*e[5mC]*eT*d[5mC]*d[5mC]*dA*dG*dA*dG*d[5mC]*d[5mC]*d[5mC]*dG*eA*eG*eT*e[5mC]*eG) [compound 328727] with HeLa cells - % cells aneuploid?
*A* 161%

*Q* Param readout= % cells aneuploid; system= HeLa cells; entry= 341788 (antisense AGCCAAGCTCAGACGGATCCGA; all 2'-MOE, all phosphorothioate, methylation of C not given here) [compound 341788] ; returns value.
*A* 114%
